Listing of recorded melting point by entry.

>  <COMPOUND>
O=C(O)c1ccc(Cl)c(NS(=O)(=O)c2ccc(F)cc2)c1

>  <melting point>
211 to 213 °C

$$$$
>  <COMPOUND>
Cc1ccc(-n2nnc(C(=O)O)c2C(C)C)cc1

>  <melting point>
176 to 178 °C

$$$$
>  <COMPOUND>
CCNS(=O)(=O)c1ccc(/C=C/C(=O)O)cc1

>  <melting point>
248 to 250 °C

$$$$
>  <COMPOUND>
O=C(O)/C=C/S(=O)(=O)c1ccccc1

>  <melting point>
190 to 192 °C

$$$$
>  <COMPOUND>
CCc1noc(-c2ccc(C)c(N)c2)n1

>  <melting point>
77 to 79 °C

$$$$
>  <COMPOUND>
COc1ccc(C(NC(=O)CCl)c2ccc(OC)cc2)cc1

>  <melting point>
118 to 120 °C

$$$$
>  <COMPOUND>
Cc1cc(Br)ncc1N

>  <melting point>
54 to 56 °C

$$$$
>  <COMPOUND>
CC(C)(C)OC(=O)NCC1CCCCC1N (stereo not given)

>  <melting point>
61 to 63 °C

$$$$
>  <COMPOUND>
Cc1cc(C(=O)CCl)c(C)n1-c1ccc(F)c(Cl)c1

>  <melting point>
115 to 117 °C

$$$$
>  <COMPOUND>
Cc1cc(C(=O)O)c(O)c(S(N)(=O)=O)c1

>  <melting point>
218 to 220 °C

$$$$
>  <COMPOUND>
CC(Oc1ccc(Cl)cc1Br)C(=O)O (stereo not given)

>  <melting point>
122 to 124 °C

$$$$
>  <COMPOUND>
CC(C)c1nnc(S)n1C1CC1

>  <melting point>
146 to 148 °C

$$$$
>  <COMPOUND>
COC(=O)c1occc1CBr

>  <melting point>
50 to 52 °C

$$$$
>  <COMPOUND>
CC(C)(C)C1CCN(S(=O)(=O)Cl)CC1

>  <melting point>
69 to 71 °C

$$$$
>  <COMPOUND>
COC(=O)NC1CCC(O)CC1 (stereo not given)

>  <melting point>
139 to 141 °C

$$$$
>  <COMPOUND>
CCOC(=O)c1[nH]ncc1C=O

>  <melting point>
168 to 170 °C

$$$$
>  <COMPOUND>
CC(C)(C)c1ccc(N2CCC(N)CC2)cc1

>  <melting point>
80 to 82 °C

$$$$
>  <COMPOUND>
CCOC(=O)c1ccccc1C#N

>  <melting point>
59 to 61 °C

$$$$
>  <COMPOUND>
COC1CCN(C(=O)Nc2cccc(C(C)=O)c2)CC1

>  <melting point>
104 to 106 °C

$$$$
>  <COMPOUND>
O=C(O)c1ccc(S(=O)(=O)Nc2ccccc2)cc1

>  <melting point>
225 to 228 °C

$$$$
>  <COMPOUND>
Cc1sc2nc(-c3ccc(OC(F)F)cc3)nc(Cl)c2c1C

>  <melting point>
140 to 142 °C

$$$$
>  <COMPOUND>
COc1ncncc1N

>  <melting point>
71 to 73 °C

$$$$
>  <COMPOUND>
CNC(=O)COc1ccc(C=O)cc1OC

>  <melting point>
105 to 107 °C

$$$$
>  <COMPOUND>
CCc1ccc(OCC(=O)O)cc1

>  <melting point>
93 to 97 °C

$$$$
>  <COMPOUND>
Cn1cc(-c2cncc(C(=O)O)c2)cn1

>  <melting point>
260 to 262 °C

$$$$
